TESTED SYSTEM: CD3
Sequence (P07766 23-126): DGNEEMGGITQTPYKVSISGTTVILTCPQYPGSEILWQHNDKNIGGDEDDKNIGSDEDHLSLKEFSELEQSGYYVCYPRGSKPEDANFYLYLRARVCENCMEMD
METHOD SUMMARY: Octet, crude lysate
# Kd listing for each entry below
PARAMETER MEASURED: Kd (nM)

[
  {
    "BINDER": "AC3410 (bispecific antibody, V domains shown) VH: EVQLLESGGGIVQPGGSLKLSCAASGFTFNTYAMNWVRQAPGKGLEWVARIRSKYNNFATYYADSVKDRFTISRDDSKNTVYLQMNNLKTEDTAVYYCVRHENFGNSYVSWFAHWGQGTLVTVSS VL: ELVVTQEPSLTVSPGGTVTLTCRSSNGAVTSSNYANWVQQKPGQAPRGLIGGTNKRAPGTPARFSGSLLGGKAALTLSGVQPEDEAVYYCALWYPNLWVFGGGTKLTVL",
    "UNITS": "nM",
    "MEASURED": 6.1
  },
  {
    "BINDER": "AC3417 (bispecific antibody, V domains shown) VH: EVQLLESGGGIVQPGGSLKLSCAASGFTFNTYAMNWVRQAPGKGLEWVARIRSKYNNYATYDADSVKDRFTISRDDSKNTVYLQMNNLKTEDTAVYYCVRHENFGNSYVSWFAHWGQGTLVTVSS VL: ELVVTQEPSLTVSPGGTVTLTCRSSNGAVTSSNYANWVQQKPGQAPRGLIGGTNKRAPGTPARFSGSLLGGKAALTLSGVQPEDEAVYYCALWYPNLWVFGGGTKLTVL",
    "UNITS": "nM",
    "MEASURED": 63.2
  },
  {
    "BINDER": "AC3385 (bispecific antibody, V domains shown) VH: EVQLLESGGGIVQPGGSLKLSCAASGFTFNTYAMNWVRQAPGKGLEWVARTRSKYNNYATYYADSVKDRFTISRDDSKNTVYLQMNNLKTEDTAVYYCVRHENFGNSYVSWFAHWGQGTLVTVSS VL: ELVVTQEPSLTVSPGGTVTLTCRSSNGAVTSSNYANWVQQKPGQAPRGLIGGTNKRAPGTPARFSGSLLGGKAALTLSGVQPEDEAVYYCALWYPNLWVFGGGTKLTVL",
    "UNITS": "nM",
    "MEASURED": 425
  }
]
